Data provenance is ChEMBL document CHEMBL1125563.

# ED50 annotations
Species: Mus musculus
Assay: Compound was evaluated for the inhibition of isolation-induced aggression at a threshold of 180 seconds
Format: functional

Examples with answers:
>>> df
                         chemical_structure  reported_result
0  CNC(=O)N(C)CCN1CCC(c2cn(-c3ccc(F)cc3)c3cc(Cl)ccc23)CC1     > 23 µmol/kg
1  Cc1ccc2c(C3CCN(CCN4CCN(C(C)C)C4=O)CC3)cn(-c3ccccc3)c2c1     > 11 µmol/kg

Query: ED50; subject: CC(C)NC(=O)N(C)CCN1CCC(c2cn(-c3ccc(F)cc3)c3cc(Cl)ccc23)CC1
> 21 µmol/kg

###

Biological target: Serotonin 2 (5-HT2) receptor (Rattus norvegicus, UniProt P30994+P08909+P14842)
Assay: Displacement of [3H]ketanserin from 5-hydroxytryptamine 2 receptor from rat cortical membranes.
Format: cell membranes, Membrane
Note to self: use label 1 only for IC50 readings below 1 nM; a reading exactly at 1 nM still gets label 0.

The following compounds have reported results that may help.
                         chemical_structure  answer_label
0  O=C1NCCN1CCN1CCC(c2cn(-c3ccc(F)cc3)c3cc(F)ccc23)CC1       label 1
1  CC(C)N1CCN(CCN2CCC(c3cn(-c4ccccc4)c4cc(Cl)ccc34)CC2)C1=O       label 0
2  CC(C)N1CCN(CCN2CCC(c3cn(-c4ccccc4F)c4cc(Cl)ccc34)CC2)C1=O       label 0
3  CC(C)c1ccc2c(C3CCN(CCN4CCNC4=O)CC3)cn(-c3ccc(F)cc3)c2c1       label 0
4  CN(C)C(=O)NCCN1CCC(c2cn(-c3ccc(F)cc3)c3cc(Cl)ccc23)CC1       label 0

Please check: IC50 for Cc1c(C2CCN(CCN3CCNC3=O)CC2)c2ccccc2n1-c1ccc(F)cc1 , strictly under 1 nM or not?
label 1

Answer whether the compound Cc1c(C2=CCN(CCN3CCNC3=O)CC2)c2ccccc2n1-c1ccc(F)cc1 has IC50 strictly less than 1 nM
label 0

Answer whether the compound Cc1ccc2c(C3CCN(CCN4CCN(C(C)C)C4=O)CC3)cn(-c3ccc(Cl)cc3)c2c1 has IC50 strictly less than 1 nM
label 0
